Data origin: PubChem BioAssay

- System: Chordin-like protein 2 (CHRDL2)
- EXPERIMENTAL_PROTOCOL: CHRDL2 small-molecule binders, primary screen, biochemical, small-molecule microarray, 635 nm fluorescence (AID 1126);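 note: printed compound slides probed with Chrdl2 protein at 4 µg/mL for 1 h at 4 C; score merges 667 nm emission intensity with signal to noise over three replicate slides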
- CONDITION_SET: small-molecule microarray binding, fluorescence 635 nm; higher = more signal
Use criterion met when the recorded composite z-score is no lower than 0.6; use criterion not met when it is lower.

>  <MOLECULE>
CCOC(=O)CCN1C(=O)[C@H]2[C@H]3[C@H](O)[C@H](O)CC(=O)[C@@H]3CC[C@H]2C1=O

>  <LABEL_CLASS>
criterion not met

$$$$
>  <MOLECULE>
CC(=O)OC[C@H]1O[C@H](C#CCC2CCCCC2)C=C[C@@H]1OC(C)=O

>  <LABEL_CLASS>
criterion not met

$$$$
>  <MOLECULE>
CC(C)CON=C1[C@H]2CCn3c(=O)n(C)c(=O)n3[C@H]2[C@H](O)[C@@H]2O[C@H]12

>  <LABEL_CLASS>
criterion met

$$$$
>  <MOLECULE>
C#CCCCON=C1C[C@@H](O)[C@@H](O)[C@@H]2[C@@H]3C(=O)N(CC)C(=O)[C@@H]3CC[C@H]12

>  <LABEL_CLASS>
criterion not met

$$$$
>  <MOLECULE>
C[C@H]1C=CCC(=O)OC[C@H](C)C(=O)N2CCC[C@H]2C(=O)OC1

>  <LABEL_CLASS>
criterion met

$$$$

**Q:** Please indicate if the recorded composite z-score for O=C1C2=CC[C@H]3C(=O)N(C[C@@H]4CCCO4)C(=O)[C@H]3[C@H]2[C@H](O)[C@@H]2O[C@H]12 meets or exceeds 0.6.
**A:** criterion not met

**Q:** Given the entry COC(=O)CC=C[C@@H](C)[C@@H](C=NOC(C)CN1CCCCc2nc(C)c(C)cc21)OC (stereo not given in full) , answer whether its composite z-score meets or surpasses 0.6.
**A:** criterion met

**Q:** Does the molecule CO[C@H]1C[C@@H]2C[C@H](O)CC(CC(=O)O[C@@H](C=CCC(C)C)C[C@@H]3CC[C@H](C)[C@@H](C1)O3)O2 have recorded composite z-score that is 0.6 or more?
**A:** criterion met

**Q:** Is the recorded value of composite z-score equal to or greater than 0.6 for this molecule? CCN1C(=O)[C@H]2[C@H]3[C@H](O)[C@H](O)CC(=NOC[C@@H](O)COCc4ccco4)[C@H]3CC[C@H]2C1=O
**A:** criterion met

**Q:** Please check the record CC(C)CON=C1C[C@@H](O)[C@@H](O)[C@@H]2[C@@H]3C(=O)N(Cc4ccccc4)C(=O)[C@@H]3CC[C@H]12 and state if its composite z-score is at or above 0.6.
**A:** criterion not met

**Q:** Check this molecule for composite z-score at or above 0.6: C#CCCCON=C1[C@H]2CCn3c(=O)n([C@@H](CC)c4ccccc4)c(=O)n3[C@H]2[C@H](O)[C@@H]2O[C@H]12
**A:** criterion not met

**Q:** Identify whether the reported composite z-score of the following molecule is 0.6 or greater: CCc1cc2c(nc1CC)CCN(CCC(C)=NOC(C)CN1CCCCc3nc(C)c(C)cc31)C2 (stereo not given)
**A:** criterion met

**Q:** Textbook exercise: given the entry CC(CCN1CCc2nc(-c3ccccc3)c(-c3ccccc3)cc2C1)=NOC(C)CN1CCCc2nc(C)c(C)cc21 (stereo not given) , state whether its composite z-score is greater than or equal to 0.6.
**A:** criterion not met

**Q:** Hello, I need to know if CC(CCC(=O)OC[C@H]1O[C@H](C#Cc2ccccc2)C=C[C@@H]1Oc1ccc(C)cc1)=NO[C@H](C)c1cn([C@@H]2COC[C@H]2O)nn1 has measured composite z-score not below 0.6. Thanks!
**A:** criterion not met

**Q:** I'd appreciate it if you could say whether C[C@H]1CC[C@H]2C(=O)O[C@H](CO)CN2[C@@H]1c1ccc(Br)cc1 has composite z-score at least equal to 0.6.
**A:** criterion not met

**Q:** Is composite z-score at least 0.6? Consider O=C1C[C@@H](O)[C@@H](O)[C@@H]2[C@@H]3C(=O)N(c4ccc(F)cc4F)C(=O)[C@@H]3CC[C@H]12
**A:** criterion not met

**Q:** Does COc1cccc([C@H]2Oc3ccc(OC)cc3C(=NOCC[C@@H]3C=C[C@H](OC(C)=O)[C@@H](COC(C)=O)O3)[C@@H]2O)c1 have a reported composite z-score of at least 0.6?
**A:** criterion not met

**Q:** Hello, I need to know if CCCNC(=O)OC[C@H]1O[C@H](CCON=C2C[C@@H](O)[C@@H](O)[C@@H]3[C@@H]4C(=O)N(CC)C(=O)[C@@H]4CC[C@@H]23)C=C[C@@H]1Oc1ccc(OC)cc1 has measured composite z-score not below 0.6. Thanks!
**A:** criterion met

**Q:** Could you verify whether the entry CCCCOC(OCCCC)C(O)CSc1ccc2ccccc2c1 (stereo not given) shows composite z-score of no less than 0.6?
**A:** criterion not met

**Q:** Check if composite z-score >= 0.6 (inclusive). Item: CC(CCC(=O)OC[C@H]1O[C@H](C#Cc2ccccc2)C=C[C@@H]1Oc1ccc(C)cc1)=NOC(C)CN1CCCCc2nc(C)c(C)cc21 (stereo not given in full)
**A:** criterion not met

**Q:** Determine whether measured composite z-score meets or exceeds 0.6 for CCN1C(=O)[C@H]2[C@H]3[C@H](O)[C@H](O)CC(=NO[C@@H]4O[C@H](COC(C)=O)[C@@H](OC(C)=O)[C@H](OC(C)=O)[C@H]4OC(C)=O)[C@@H]3CC[C@H]2C1=O
**A:** criterion not met

**Q:** Please indicate if the recorded composite z-score for C[C@@H]1CC[C@H]2C(=O)OC(CN3C(=O)c4ccccc4C3=O)CN2[C@H]1c1ccc(Br)cc1 (stereo not given in full) meets or exceeds 0.6.
**A:** criterion not met

**Q:** In plain terms: is recorded composite z-score at least 0.6 for CC(=O)OC[C@H]1O[C@@H](ON=C2[C@H]3CCn4c(=O)n(-c5ccccc5)c(=O)n4[C@H]3[C@H](O)[C@@H]3O[C@H]23)[C@H](OC(C)=O)[C@@H](OC(C)=O)[C@@H]1OC(C)=O ?
**A:** criterion not met

**Q:** Is composite z-score for CC(=O)OC[C@H]1O[C@H](CC=NOC(C)CN2CCCCc3nc(C)c(C)cc32)C=C[C@@H]1OC(C)=O (stereo not given in full) at or above 0.6?
**A:** criterion met

**Q:** Tell me whether composite z-score is at least 0.6 here: COC(=O)[C@H](C)NC(=O)CCC1CC(OC(=O)NCCc2ccc(F)cc2)CC2(CCCC(COC(=O)NCC3CCCCC3)O2)O1 (stereo not given in full)
**A:** criterion not met
